- Protocol text: protein stability index of a GFP-peptide fusion (GPS, HEK-293T) (PSI 1-6); higher = more stable;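 further: 24-mer peptide tiles fused after GFP, lentivirally expressed, FACS-sorted into six equal bins by GFP/DsRed ratio, decoded by Illumina sequencing, PSI is the read-weighted mean bin number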
- Stated conditions: treatment: DMSO; c terminus: a fixed tail appended
Listing of entries alongside the reported protein stability index.
Experimental endpoint: protein stability index

INSERT INTO results (primary_sequence, experimental_endpoint, val) VALUES
  ('RVYHGWLFEGLGRDKAEELLQLPD [SLA]', 'protein stability index', 3.01),
  ('QQVKCIITEEKVCMVCKKKIGNSA [VPS39]', 'protein stability index', 3.24),
  ('LLQTQHALGDAFADLSQKSPELQE [ARFIP2]', 'protein stability index', 4.7),
  ('RGLHEDLQGVPERLLGTAGTEEKK [VTI1B]', 'protein stability index', 5.38),
  ('CLTQSTAAPAVRASSSPVTLRQKT [SLA]', 'protein stability index', 4.02),
  ('AGEDNDELIDNLKEAQYIRTELVE [PCMTD2]', 'protein stability index', 5.13),
  ('LRRQKSLRLEWETQQELRKIREKE [IQUB]', 'protein stability index', 3.94),
  ('RNMLGLLGNVAEVKELRPQLMTSQ [ZER1]', 'protein stability index', 3.09),
  ('FFKGGGSSKSRAAPSPQEALVRLR [CHMP4C]', 'protein stability index', 3.26),
  ('AKNYIWALSEILRIGKRPDLLTFV [NEUROD6]', 'protein stability index', 2.53),
  ('PPLPPPDDPATLGPHLGLRGVPQS [DYRK1B]', 'protein stability index', 4.9),
  ('LEGYISNLRKQLETLSGDRVRLDS [KRT71]', 'protein stability index', 3.17),
  ('LNRSESDIRYLLGYVSQQGGQRST [FEM1B]', 'protein stability index', 3.73),
  ('YPVVVAESMYGDFQEAMTHLQHKL [TENT5D]', 'protein stability index', 2.49),
  ('TVKFANNPSQKTGQALLTHLYQSS [ELAVL3]', 'protein stability index', 3.01),
  ('YFYHRETENEEQTQLTQNAVSCPY [KCNA4]', 'protein stability index', 3.88),
  ('FKPKLYKGDRGLPLEGSAKGKVQA [RBBP5]', 'protein stability index', 3.96),
  ('SLYGENSNSLSSAEPLKEDKPVTG [ATF6]', 'protein stability index', 4.54),
  ('KMEIYQKENKDVIQKNKLKLTREQ [MNAT1]', 'protein stability index', 3.89),
  ('ATQQARKRNFISSKSKQPAGHRRP [C22orf31]', 'protein stability index', 4.58);
